Assay: Quantitative High-Throughput drug screen in 47 multiple myeloma cell lines against the NCATS MIPE library collection: KMS12PE_JCRB cell viability assay (AID 1918972); also: nearly all actives have a fitted effect of over 30% in size;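 as to viability: 100% = DMSO only wells and 0% = wells with media alone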
Conditions: KMS12PE myeloma viability, CellTiter-Glo ATP, 48 h; series mostly up to 45.8 µM
Records with an inconclusive call do not appear. Calls of active or inactive are those of the source. Calls follow the shape of the dose curve; as a rule, active = well fitted cell-killing curve with a large enough effect; inconclusive = small, poorly fitted or top-dose-only effect, or effect the other way; inactive = no such curve, though single readings can be large or run the other way.
Bench note: report the call from T = active, F = inactive

Recorded test outcome, item O=NN(CCCl)C(=O)NCCCl
F

Kindly provide the recorded test outcome for the following compound: CCc1ccc(CCOc2ccc(CC3SC(=O)NC3=O)cc2)nc1 (stereo unspecified)
F

// outcome(item) with item = CCCCCCCc1ccc(CCc2cccc(O)c2C(=O)O)cc1
F

Entry N#Cc1ccc(C(c2ccc(C#N)cc2)n2cncn2)cc1 : call = ?
F

Assay outcome for O=C(O)CCc1ccc(NCc2cccc(Oc3ccccc3)c2)cc1 : what was it?
F

Entry Cn1cnc2c(F)c(Nc3ccc(Br)cc3Cl)c(C(=O)NOCCO)cc21 : call = ?
T

Which result was noted for this compound in the test: Clc1ccc(Nc2nnc(Cc3ccncc3)c3ccccc23)cc1
F

Per the assay record, what outcome was assigned to NS(=O)(=O)c1cc2c(cc1Cl)NC=NS2(=O)=O ?
F

I would be grateful if you could indicate the recorded call for CC(=O)Oc1ccccc1C(=O)O .
F

Given COc1ccc(COc2cc3oc(=O)c4cc(C(C)O)ccc4c3cc2OC)cc1 (stereo unspecified) , state the outcome it received in this test.
T

Short answer needed: outcome of this test for CNCc1ccc(-c2[nH]c3cc(F)cc4c3c2CCNC4=O)cc1 ?
F

Would you mind telling me which call this test gave Cc1c(CCOc2ccc(C(=O)O)cc2)c2cc(Cl)ccc2n1C(c1ccccc1)c1ccccc1 ?
F

Short answer needed: outcome of this test for Cc1c(CN2CCN(C(=O)C(C)C)CC2)sc2c(N3CCOCC3)nc(-c3cnc(N)nc3)nc12 ?
T

Recorded test call requested for C#Cc1cccc(Nc2ncnc3cc(OCCOC)c(OCCOC)cc23)c1
T

Per the records of this test, what outcome belongs to O=C(O)COCCN1CCN(C(c2ccccc2)c2ccc(Cl)cc2)CC1 (stereo unspecified) ?
F

Per the assay record, what outcome was assigned to CCC(=O)N[C@H]1CC[C@H](C(=O)N(C)c2ccc(-c3nc4ccccc4o3)cc2)C1 ?
T

Short answer needed: outcome of this test for Cc1cc(C=c2sc3nc4ccccc4n3c2=O)c(C)n1-c1ccccc1 ?
F

Kindly provide the recorded test outcome for the following compound: Cc1[nH]c(=O)c(C#N)cc1-c1ccc2nccn2c1
F

For this compound, state the assay outcome: O=C(Nc1cccnc1)N1CCC(Cc2cccc(Oc3ccc(C(F)(F)F)cn3)c2)CC1
T

What did the test return for O=C(C1CC1)N1CC[C@@H](Cn2c(-c3ccc(-c4ccc5occc5c4)cc3)nc3cnccc32)C1 ?
T

Record request — test call for CCOc1cc(N2CCC(O)CC2)ccc1Nc1ncc2c(n1)N(C)c1ccccc1C(=O)N2C
T

Assay outcome for Cc1oncc1C(=O)Nc1ccc(C(F)(F)F)cc1 : what was it?
F

What did the test return for N=c1nc(N2CCCCC2)cc(N)n1O ?
F

Write down the call the test reported for this compound. Item: O=C1[C@H](Cc2ccc(O)cc2)N2C(=O)CCN(C(=O)NCc3ccccc3)[C@H]2CN1Cc1cccc2ccccc12
F

Per the records of this test, what outcome belongs to Cn1c(=O)c(F)c(Nc2ccc(I)cc2F)c2c(=O)n(C[C@@H](O)CO)cnc21 ?
T

Hey, what did the test say about CCn1cc(C(=O)O)c(=O)c2cc(F)c(N3CCNC(C)C3)c(F)c21 (stereo unspecified) ?
F

What outcome does the record of this test show for Cc1cc(-c2ccc(CC(=O)Nc3ccc(-c4cccnc4)cc3)cc2)ccn1 ?
T

What did the test return for CC(C)NCC(O)COc1ccc(COCCOC(C)C)cc1 (stereo unspecified) ?
F

Outcome logged for CCC(C)(C)C(=O)O[C@H]1C[C@@H](C)C=C2C=C[C@H](C)[C@H](CC[C@@H]3C[C@@H](O)CC(=O)O3)[C@H]21 in this assay:
T

How did this test come out for NC(=O)c1ccc(-c2nc(-c3ccc4c(c3)OCO4)c(-c3ccccn3)[nH]2)cc1 ?
F

Record lookup: outcome of this test for O=C1CCc2cc(OCCCCc3nnnn3C3CCCCC3)ccc2N1 ?
F

###

Target: RecQ-like DNA helicase BLM (Homo sapiens)
Assay: qHTS Validation Assay for Inhibitors of Bloom's syndrome helicase (BLM) (AID 2364); also: potency is read from the fitted curve at half-maximal effect
Conditions: BLM helicase DNA unwinding, fluorescence, in vitro; series mostly up to 57.1 µM
Inconclusive results are not listed. Active and inactive are the calls of the source. Calls come from the whole dose curve; as a rule, active = well fitted inhibition curve with a large enough effect; inconclusive = small, poorly fitted or top-dose-only effect; inactive = no such curve, though single readings can be large or run the other way.
measurement_kind: Potency

Recorded Potency, per entry:
{"molecule": "CCN(CC)CCCC(C)Nc1ccnc2cc(Cl)ccc12 (stereo unspecified)", "system_name": "RecQ-like DNA helicase BLM (Homo sapiens)", "measurement_kind": "Potency", "readout_value": "inactive"}
{"molecule": "Oc1ccc(C2CNCCc3c2cc(O)c(O)c3Cl)cc1 (stereo unspecified)", "system_name": "RecQ-like DNA helicase BLM (Homo sapiens)", "measurement_kind": "Potency", "readout_value": "35.5 µM (active)"}
{"molecule": "Cc1cn[nH]c1", "system_name": "RecQ-like DNA helicase BLM (Homo sapiens)", "measurement_kind": "Potency", "readout_value": "inactive"}
{"molecule": "N=c1nc(N2CCCCC2)cc(N)n1O", "system_name": "RecQ-like DNA helicase BLM (Homo sapiens)", "measurement_kind": "Potency", "readout_value": "inactive"}
{"molecule": "Nc1ccc(S(=O)(=O)Nc2ccnn2-c2ccccc2)cc1", "system_name": "RecQ-like DNA helicase BLM (Homo sapiens)", "measurement_kind": "Potency", "readout_value": "inactive"}

The record that follows has no Potency shown yet.
Checklist item: Potency tested on RecQ-like DNA helicase BLM (Homo sapiens), entry CN1CCN(CCCN2c3ccccc3Sc3ccc(C(F)(F)F)cc32)CC1 , value?
inactive

###

Test: Cell Proliferation Assay against the TMD8 Cell Line (AID 651645);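 also: cells exposed to compound for 48 h before reading; 100% = DMSO and 0% = 9.2 µM bortezomib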
Settings: TMD8 DLBCL cell line proliferation/viability; at 46.1 µM (top of the series) unless noted
Source text: One class of targeted therapeutics showing early clinical success in killing of ABC DLBCL lines are small molecule inhibitors of the Bruton tyrosine kinase (BTK) 11. Prior to any combination assays, using an NCATS developed oncology compound library called the Mechanism of Interrogation Plate (MIPE), two well studied ABC DLBCL lines (TMD8 and HBL1) were screened using a cell viability assay (CellTiterGlo) and a 12-point titration series for each single agent. […]
Hi there, I'd appreciate the recorded viability (% of control) for every entry that follows.
Express it in %; write the number only.

Which viability (% of control) is reported for this molecule? Cc1c(C)c2c(c(C)c1O)CCC(C)(COc1ccc(CC3SC(=O)NC3=O)cc1)O2 (centres undefined)
71.7

Return reported viability (% of control); argument: COc1cc(Oc2ccnc3cc(OC)c(OC)cc23)ccc1NC(=O)NC(C)c1nccs1 (centres undefined)
69

Endpoint output: viability (% of control) of Cn1c(=O)c(F)c(Nc2ccc(I)cc2F)c2c(=O)n(C[C@@H](O)CO)cnc21 . Value?
63.3

Need viability (% of control), item N#CC[C@H](C1CCCC1)n1cc(-c2ncnc3[nH]ccc23)cn1
33.1

###

Experiment: Quantitative High-Throughput drug screen in 47 multiple myeloma cell lines against the NCATS MIPE library collection: JIM3_ECACC cell viability assay (AID 1918963; also: nearly all actives have a fitted effect of over 35% in size)
Settings: JIM3 myeloma viability, CellTiter-Glo ATP, 48 h; series mostly up to 45.8 µM
Inconclusive results are not listed. Active and inactive are the calls of the source. The call rests on the fitted dose curve; in most records, active means well fitted cell-killing curve with a large enough effect; inconclusive means small, poorly fitted or top-dose-only effect; inactive means no such curve, though single readings can be large or run the other way.
Field 'call' accepts yes (active), no (inactive)

Lab log entry: Cc1ccccc1C(OCCN(C)C)c1ccccc1 (stereo unspecified) — outcome as called in the assay?
no

Please indicate how the test categorized Cc1cc2c(C(C)C)c(O)c(O)c(C=O)c2c(O)c1-c1c(C)cc2c(C(C)C)c(O)c(O)c(C=O)c2c1O .
yes

Status in this test for COc1cc2nccc(Oc3ccc(NC(=O)NC4CC4)c(Cl)c3)c2cc1C(N)=O ?
yes

Hi, sorry to bother you, what did the test record for CCCc1nc2c(C)cc(-c3nc4ccccc4n3C)cc2n1Cc1ccc(-c2ccccc2C(=O)O)cc1 ?
no

Tell me the assay call for Cc1cc(-c2ccc(CC(=O)Nc3ccc(-c4cccnc4)cc3)cc2)ccn1 please.
yes

So what was the verdict on CC(C)(Sc1ccc(CCN(CCCCC2CCCCC2)C(=O)NC2CCCCC2)cc1)C(=O)O in this test?
no

Per the records of this test, what outcome belongs to CC(C)NCC(O)COc1ccc(COCCOC(C)C)cc1 (stereo unspecified) ?
no

// param item: COc1ccccc1-c1cccc(-c2c(O)c3cc(C#N)c(Cl)cc3[nH]c2=O)c1 ; yields the recorded call
yes

Answer briefly: the call reported for Cc1cc(C=c2sc3nc4ccccc4n3c2=O)c(C)n1-c1ccccc1 in this assay.
no

# lookup: test call for O=C(Nc1nc2ccccc2n1CCN1CCOCC1)c1cccc([N+](=O)[O-])c1
no

Recorded test call requested for Cc1cnc(NC(=O)C2=C(O)c3ccccc3S(=O)(=O)N2C)s1
no
